Literature compilation of IC50 measurements on PDE1A (Homo sapiens).

[Q] // lookup IC50 | system=PDE1A (Homo sapiens) | key= `CC[C@@]12C=C(c3ccc(C)nn3)n3c4c(c5ccccc53)CCN(CCC1)[C@H]42`
[A] 1000 to 20000 nM

[Q] Lab note: need IC50 with PDE1A (Homo sapiens) for entry `Cc1csc(-c2cc(NCc3ncn(C)n3)c3c(C(C)C)nn(C)c3n2)n1` , please look it up.
[A] 48 nM

[Q] Under PDE1A (Homo sapiens): IC50 value of `CCc1nn2c(C3CCOCC3)ncc2c(=O)n1Cc1cccc(F)c1` ?
[A] 52 nM

[Q] Kindly state the measured IC50 obtained for `Cc1cc2c(cnn2C2CCOCC2)c(=O)n1Cc1ccccc1` with PDE1A (Homo sapiens).
[A] 1260 nM

[Q] # query: IC50 | item `Cc1cn2c(C3CCOCC3)ncc2c(=O)n1Cc1ccc(OC(F)(F)F)cc1` | system: PDE1A (Homo sapiens)
[A] 27 nM

[Q] Given the entry `CC(C)CN(Cc1cccc(-n2cccn2)c1)c1nc2c(C(C)(C)C)nn(C)c2c(=O)[nH]1` , what IC50 was observed with PDE1A (Homo sapiens)?
[A] < 100 nM

[Q] Please provide the recorded IC50 for `CCCc1nn(C)c2c(=O)[nH]c(N(C)Cc3ccc(N4CCCCC4)cc3)nc12` , tested on PDE1A (Homo sapiens).
[A] 101 to 500 nM

[Q] Param readout= IC50; system= PDE1A (Homo sapiens); entry= `Cc1nn(-c2ccc(F)cc2)c2nc(C3CN(C(=O)Nc4ccccc4OC(F)F)C3)[nH]c(=O)c12` ; returns value.
[A] 1 to 100 nM

[Q] Query for PDE1A (Homo sapiens): what IC50 does the record show for `CCc1nc(C2=C[C@]3(CC)CCCN4CCc5c(n2c2ccccc52)[C@@H]43)oc1C` ?
[A] ≤ 1000 nM

[Q] Return IC50 measured with PDE1A (Homo sapiens) given this compound: COc1ccc2c(NC3(C)CCOC3)ncnc2c1OC (stereo not drawn)
[A] 150 nM

[Q] State its IC50 on PDE1A (Homo sapiens): Cc1nn(C2CCCCC2)c2nc(C3CCCN(S(=O)(=O)c4ccccc4)C3)[nH]c(=O)c12 (stereo not drawn)
[A] 1000 to 1500 nM

[Q] Query the reported IC50 for PDE1A (Homo sapiens); item: O=C(c1ccccc1OC(F)(F)F)N1CCCC(c2nc3c(cnn3C3CCCCC3)c(=O)[nH]2)C1 (stereo not drawn)
[A] 101 to 500 nM

[Q] Requested read-out IC50, target or system PDE1A (Homo sapiens), entry CCC1(c2nnc3c(=O)n(CC4CCCCO4)c(C)c(C)n23)CC1 (single isomer, unassigned)
[A] 13.2 nM

[Q] Requested read-out IC50, target or system PDE1A (Homo sapiens), entry `Cn1c(Cc2ccc(-c3cccc(F)n3)cc2)cc2c(cnn2C2CCOCC2)c1=O`
[A] 120 nM

[Q] Request - read-out IC50 | tested on PDE1A (Homo sapiens) | compound `CC[C@@]12C=C(c3cnco3)n3c4c(c5ccccc53)CCN(CCC1)[C@H]42`
[A] 20000 to 100000 nM

[Q] Form field: IC50 recorded for `CCOc1ncccc1-c1cc(NCc2coc(C)n2)c2c(C(C)C)nn(C)c2n1` with PDE1A (Homo sapiens) (enter value)
[A] 81 nM

[Q] API: value(readout=IC50, system=PDE1A (Homo sapiens)) for record COc1ccccc1C(=O)N1CCCC(c2nc3c(cnn3-c3ccccc3)c(=O)[nH]2)C1 (stereo not drawn)
[A] 101 to 500 nM

[Q] Notebook entry, PDE1A (Homo sapiens) assay: IC50 of `Cn1nc(C2CCCC2)c2nc(NCc3ccc(Cl)c(Cl)c3)[nH]c(=O)c21` = ?
[A] 101 to 500 nM

[Q] Please provide the recorded IC50 for `Cc1cn2c(C3(C#N)CCOCC3)ncc2c(=O)n1Cc1cccc(F)c1` , tested on PDE1A (Homo sapiens).
[A] 603 nM

[Q] Could you share what IC50 was measured for `CCOc1ncccc1-c1cc(N2CCCC2)c2c(cnn2C2COC2)n1` , tested on PDE1A (Homo sapiens)?
[A] 641 nM

[Q] Request - read-out IC50 | tested on PDE1A (Homo sapiens) | compound CCCn1nc(C)c2c(=O)[nH]c(C3CCCN(S(=O)(=O)c4ccc(OC)cc4)C3)nc21 (stereo not drawn)
[A] 1000 to 1500 nM

[Q] Enter reported IC50 observed with PDE1A (Homo sapiens) for `CC[C@@]12C=C(c3cn4ccccc4n3)n3c4c(c5ccccc53)CCN(CCC1)[C@H]42`
[A] 1000 to 20000 nM

[Q] Checklist item: IC50 tested on PDE1A (Homo sapiens), entry `CC[C@@]12C=C(c3ccccn3)n3c4c(c5ccccc53)CCN(CCC1)[C@H]42` , value?
[A] 20000 to 100000 nM

[Q] For the record `CC[C@@]12C=C(c3nc(C(C)C)c(C)o3)n3c4c(c5ccccc53)CCN(CCC1)[C@H]42` , what value of IC50 is listed for PDE1A (Homo sapiens)?
[A] ≤ 1000 nM

[Q] Requested read-out IC50, target or system PDE1A (Homo sapiens), entry `CCCc1nn(C)c2c(=O)[nH]c(N(C)Cc3ccc(OCCN4CCOCC4)cc3)nc12`
[A] 101 to 500 nM

[Q] Recorded IC50 for `CC(C)c1nn(C)c2nc(-c3cccn(C)c3=O)cc(NCc3ncn(C)n3)c12` with PDE1A (Homo sapiens), please?
[A] 290 nM

[Q] Provide the documented IC50 with PDE1A (Homo sapiens) as the system for `CCOc1ncccc1-c1cc(NCc2ccccn2)c2c(C(C)C)nc(C)n2n1`
[A] 180 nM

[Q] Record lookup: for PDE1A (Homo sapiens), what IC50 belongs to `CCCc1nn(C)c2c(=O)[nH]c(NCCc3ccc(Cl)cc3)nc12` ?
[A] 101 to 500 nM

[Q] So what IC50 did `CC[C@@]12C=C(c3nccc(C)n3)n3c4c(c5ccccc53)CCN(CCC1)[C@H]42` get with PDE1A (Homo sapiens)?
[A] 20000 to 100000 nM

[Q] Kindly state the measured IC50 obtained for `CCCc1nn(C)c2c(=O)[nH]c(NCc3ccc(CN4CCOCC4)cc3)nc12` with PDE1A (Homo sapiens).
[A] 101 to 500 nM

[Q] Param readout= IC50; system= PDE1A (Homo sapiens); entry= `CC[C@@]12C=C(c3noc(C(C)(C)O)n3)n3c4c(c5ccccc53)CCN(CCC1)[C@H]42` ; returns value.
[A] 1000 to 20000 nM

[Q] Entry `N#C/N=C(/NCC1CCCCC1)N1CC(c2nc3c(cnn3C3CCCCC3)c(=O)[nH]2)C1` , system PDE1A (Homo sapiens): what IC50 was measured?
[A] 1 to 100 nM

[Q] Lookup: IC50 / PDE1A (Homo sapiens) / `CN1CCN(c2ccc3[nH]c(N4CC(c5nc6c(cnn6C(C)(C)C)c(=O)[nH]5)C4)nc3c2)CC1`
[A] 101 to 500 nM
